Collected percent of initially cell-free region filled (gap closure) values appear next to each entry.
test system: SKBr3 cells; assay: Wound closure assay, SKBr3 cells with Mena^11a-specific shRNA; type: cell-based, human; conditions: twenty-four hours

Example entries begin here.
| molecule | endpoint-result |
| --- | --- |
| sh-2C: paired control shRNA for sh-2, SEQ ID NO. 9 (nucleic acid) guide: TGCTGTTGACAGTGAGCGAAACAGGTCATAGGATTAATTATAGTGAAGCCACAGATGTATAATTAATCCTATGACCTGTTCTGCCTACTGCCTCGGA | 55.24% ±1.8 |
| sh-2: shRNA targeting the 11a insertion of Mena^11a, SEQ ID NO. 8 (nucleic acid) guide: TGCTGTTGACAGTGAGCGCAACAGGTCCTATGATTCATTATAGTGAAGCCACAGATGTATAATGAATCATAGGACCTGTTATGCCTACTGCCTCGGA | 77.84% ±3.6 |
| sh-1: shRNA targeting the 11a insertion of Mena^11a, SEQ ID NO. 6 (nucleic acid) guide: TGCTGTTGACAGTGAGCGCATGATTCATTACACAGACCAATAGTGAAGCCACAGATGTATTGGTCTGTGTAATGAATCATATGCCTACTGCCTCGGA | 74.76% ±4.8 |

Please turn your attention to the following entry.
Query: I would be grateful if you could share the reported percent of initially cell-free region filled (gap closure) for sh-1C: paired control shRNA for sh-1, SEQ ID NO. 7 (nucleic acid) guide: TGCTGTTGACAGTGAGCGAATGATTCCTTAAACAGCCCAATAGTGAAGCCACAGATGTATTGGGCTGTTTAAGGAATCATGTGCCTACTGCCTCGGA .
Result: 49.03% ±4.2
